Molecular target: T1, human PD-L1 (construct not stated) (human, UniProt Q9NZQ7 19-239, limits assumed)
T1 construct: also called B7-H1 (PD-L1); PD-L1 protein
T1 sequence (Q9NZQ7 19-239 limits assumed): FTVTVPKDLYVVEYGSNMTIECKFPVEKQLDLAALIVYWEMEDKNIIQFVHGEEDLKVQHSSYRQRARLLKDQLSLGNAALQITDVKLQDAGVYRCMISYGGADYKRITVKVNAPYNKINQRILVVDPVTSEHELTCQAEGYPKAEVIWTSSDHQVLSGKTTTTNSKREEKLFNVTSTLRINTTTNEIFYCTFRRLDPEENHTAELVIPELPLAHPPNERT
Assay: BLI Octet Red 96, affinity ranking
Known koff of a selection of binders
Lab book: enter the figure in s⁻¹, no units written.

Request: Entry Hu1210-21 (antibody, V domains shown, Hu1210 VH.4a x Vk.1a; human gamma 1 / kappa constant domains) VH: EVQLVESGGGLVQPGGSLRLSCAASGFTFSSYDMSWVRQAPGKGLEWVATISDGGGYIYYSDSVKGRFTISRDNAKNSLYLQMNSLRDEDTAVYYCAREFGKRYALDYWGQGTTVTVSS VL: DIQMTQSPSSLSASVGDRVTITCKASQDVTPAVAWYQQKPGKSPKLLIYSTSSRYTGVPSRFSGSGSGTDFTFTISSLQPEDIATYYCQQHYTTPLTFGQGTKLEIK needs its koff filled in; supply it.
Result: 0.000293

Request: Fill in reported koff for this entry: H1210 chimera (antibody, V domains shown, also called chimeric antibody) VH: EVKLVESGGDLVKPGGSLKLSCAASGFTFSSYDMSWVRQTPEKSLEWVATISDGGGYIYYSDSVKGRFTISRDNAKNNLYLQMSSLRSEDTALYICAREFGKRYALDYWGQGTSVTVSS VL: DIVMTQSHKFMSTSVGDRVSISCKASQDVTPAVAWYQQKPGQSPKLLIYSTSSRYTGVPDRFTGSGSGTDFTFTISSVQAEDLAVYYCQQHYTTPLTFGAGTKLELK
Result: 0.000173

Request: Give a short answer stating reported koff for Hu1210-14 (antibody, V domains shown, Hu1210 VH.3a x Vk.1; human gamma 1 / kappa constant domains) VH: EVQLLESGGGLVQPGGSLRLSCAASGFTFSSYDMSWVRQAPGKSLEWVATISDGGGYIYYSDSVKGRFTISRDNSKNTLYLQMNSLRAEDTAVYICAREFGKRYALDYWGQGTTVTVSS VL: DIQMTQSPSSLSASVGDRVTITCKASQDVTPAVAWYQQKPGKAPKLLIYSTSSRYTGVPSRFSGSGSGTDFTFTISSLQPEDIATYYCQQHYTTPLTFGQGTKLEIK .
Result: 0.000197
